Biological target: E. coli sulfate binding protein variant R134C, fluorophore conjugate (Escherichia coli, UniProt P0AG78, R153C)
Construct: Gly-Ser-Gly-(His)n or Gly-Ser-(His)n, n=5, 6 or 10 (C); initiator methionine (N); made in house; host or cells: E. coli strain BL21-DE3
Sequence (P0AG78 20-329 R153C): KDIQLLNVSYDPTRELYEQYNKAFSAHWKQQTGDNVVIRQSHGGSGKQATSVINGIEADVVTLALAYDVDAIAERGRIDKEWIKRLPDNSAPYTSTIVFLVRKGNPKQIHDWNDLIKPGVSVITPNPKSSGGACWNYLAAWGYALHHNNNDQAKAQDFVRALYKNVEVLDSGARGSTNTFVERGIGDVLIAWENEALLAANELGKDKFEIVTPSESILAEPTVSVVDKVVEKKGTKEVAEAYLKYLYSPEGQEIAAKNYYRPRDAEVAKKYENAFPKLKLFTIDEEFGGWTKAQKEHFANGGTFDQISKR
Test: Fluorimetric titration of fluorophore conjugates
Details: Fluorescein conjugate, R134C, ligand sulfate
Measured property: Kd (nM)
Please respond with the number in nM and leave the unit unwritten.

Entry O=S(=O)(O)O [sulfate] — recorded Kd = 323

* * *

Biological target: E. coli dipeptide binding protein variant K394C, fluorophore conjugate (Escherichia coli, UniProt P23847, K422C)
Construct: initiator methionine (N); Gly-Ser-Gly-(His)n or Gly-Ser-(His)n (n = 5, 6 or 10) (C); made in house; host or cells: E. coli BL21-DE3
Sequence (P23847 29-535 K422C): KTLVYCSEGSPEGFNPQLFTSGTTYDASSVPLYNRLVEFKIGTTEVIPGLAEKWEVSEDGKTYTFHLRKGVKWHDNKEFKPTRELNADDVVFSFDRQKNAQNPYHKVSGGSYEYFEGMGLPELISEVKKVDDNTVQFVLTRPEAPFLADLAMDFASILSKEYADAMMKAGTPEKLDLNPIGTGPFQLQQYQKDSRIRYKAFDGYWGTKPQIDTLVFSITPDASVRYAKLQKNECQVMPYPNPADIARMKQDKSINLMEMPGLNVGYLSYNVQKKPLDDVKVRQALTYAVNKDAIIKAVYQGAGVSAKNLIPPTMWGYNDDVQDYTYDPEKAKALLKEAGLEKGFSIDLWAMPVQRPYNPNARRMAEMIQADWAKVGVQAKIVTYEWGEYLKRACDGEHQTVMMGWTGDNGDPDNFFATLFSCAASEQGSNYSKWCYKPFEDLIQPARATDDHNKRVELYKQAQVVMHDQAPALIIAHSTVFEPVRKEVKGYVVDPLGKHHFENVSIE
Assay: Fluorimetric titration of fluorophore conjugates
Details: Kd, NBD conjugate; peristeric site
Measured property: pKd
The scale used: pKd is minus the common logarithm of the concentration in molar units.

Entry CC(C)C[C@H](NC(=O)CN)C(=O)O [Gly-Leu, Gly-Leu dipeptide] — recorded pKd = 7.92

* * *

Biological target: E. coli dipeptide binding protein variant D450C, fluorophore conjugate (Escherichia coli, UniProt P23847, D478C)
Construct: initiator methionine (N); Gly-Ser-Gly-(His)n or Gly-Ser-(His)n (n = 5, 6 or 10) (C); made in house; host or cells: E. coli BL21-DE3
Sequence (P23847 29-535 D478C): as the sequence (P23847 29-535 K422C) above, with C394K, D450C counted along it
Test: Fluorimetric titration of fluorophore conjugates
Conditions: Acrylodan conjugate, peristeric site
Measured property: pKd
The scale used: pKd is minus the common logarithm of the concentration in molar units.

Entry CC(C)C[C@H](NC(=O)CN)C(=O)O [Gly-Leu, Gly-Leu dipeptide] — recorded pKd = 4.96

* * *

Target: E. coli arabinose binding protein variant C64A/D257C, fluorophore conjugate (Escherichia coli, UniProt P02924, C87A/D280C)
Construct: initiator methionine (N); Gly-Ser-Gly-(His)n or Gly-Ser-(His)n (n = 5, 6 or 10) (C); made in house; host or cells: E. coli BL21-DE3
Sequence (P02924 24-329 C87A/D280C): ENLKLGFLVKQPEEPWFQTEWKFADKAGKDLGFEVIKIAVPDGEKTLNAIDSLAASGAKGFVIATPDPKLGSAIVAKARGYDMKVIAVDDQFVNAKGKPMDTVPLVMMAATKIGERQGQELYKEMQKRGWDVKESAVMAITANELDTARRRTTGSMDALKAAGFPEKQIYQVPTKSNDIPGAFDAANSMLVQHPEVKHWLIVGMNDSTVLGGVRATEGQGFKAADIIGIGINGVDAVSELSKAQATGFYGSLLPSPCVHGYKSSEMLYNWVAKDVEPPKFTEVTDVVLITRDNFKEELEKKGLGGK
Test: Fluorimetric titration of fluorophore conjugates
Settings: NBD conjugate, allosteric site
Text: Molecular Cloning. […] Additionally the sequence of Fe(III) BP was mutated by substitution of Glu57 with Asp to raise the Kd to a concentration range conveniently measured using Fe(III) citrate. […] Fluorimetry. […] Fluorescence emission spectra were acquired with excitation and emission slit widths of 4 and 8 nm, respectively. […] Analyte affinity measurements. […] The emission wavelength monitored was that of maximum difference in intensity between the ligand-free and bound states. […]
Measured property: Kd (µM)
Please respond with the number in µM and leave the unit unwritten.

Entry OC1OC[C@H](O)[C@H](O)[C@H]1O (stereo partly shown) — recorded Kd = 32

* * *

Target: E. coli sulfate binding protein variant R134C, fluorophore conjugate (Escherichia coli, UniProt P0AG78, R153C)
Construct: Gly-Ser-Gly-(His)n or Gly-Ser-(His)n, n=5, 6 or 10 (C); initiator methionine (N); made in house; host or cells: E. coli strain BL21-DE3
Test: Fluorimetric titration of fluorophore conjugates
Conditions: JPW4042 conjugate, R134C, ligand sulfate
Measured property: pKd
The scale used: pKd is minus the common logarithm of the concentration in molar units.

Entry O=S(=O)(O)O [sulfate] — recorded pKd = 4.54

* * *

Target: E. coli ribose binding protein variant E192C, fluorophore conjugate (Escherichia coli, UniProt P02925, E217C)
Construct: Gly-Ser-Gly-(His)n or Gly-Ser-(His)n, n=5, 6 or 10 (C); initiator methionine (N); made in house; host or cells: E. coli strain BL21-DE3
Sequence (P02925 26-296 E217C): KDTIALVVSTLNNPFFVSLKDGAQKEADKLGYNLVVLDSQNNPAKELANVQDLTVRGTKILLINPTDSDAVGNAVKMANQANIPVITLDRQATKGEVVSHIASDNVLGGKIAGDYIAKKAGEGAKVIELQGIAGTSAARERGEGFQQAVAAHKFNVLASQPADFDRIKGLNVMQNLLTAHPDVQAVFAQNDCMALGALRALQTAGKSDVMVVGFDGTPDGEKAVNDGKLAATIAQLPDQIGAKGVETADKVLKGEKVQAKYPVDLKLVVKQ
Assay: Fluorimetric titration of fluorophore conjugates
Settings: Kd, JPW4042 conjugate, E192C, ligand ribose
Measured property: Kd (µM)
Please respond with the number in µM and leave the unit unwritten.

Entry OC1OC[C@@H](O)[C@@H](O)[C@H]1O (stereo partly shown) [ribose] — recorded Kd = 5.03

* * *

Molecular target: E. coli glutamate/aspartate binding protein (YBEJ, SEQ ID NO:3) variant T129C, fluorophore conjugate (Escherichia coli, UniProt P37902, T129C)
Construct: The underlined methionine is the initiation codon for expression of YBEJ used in the study; initiation methionine (N); Gly-Ser-Gly-(His)n or Gly-Ser-(His)n (C); made in house; host or cells: E. coli BL21-DE3
Sequence (P37902 other isoform, or with tags, fused parts or gaps T129C): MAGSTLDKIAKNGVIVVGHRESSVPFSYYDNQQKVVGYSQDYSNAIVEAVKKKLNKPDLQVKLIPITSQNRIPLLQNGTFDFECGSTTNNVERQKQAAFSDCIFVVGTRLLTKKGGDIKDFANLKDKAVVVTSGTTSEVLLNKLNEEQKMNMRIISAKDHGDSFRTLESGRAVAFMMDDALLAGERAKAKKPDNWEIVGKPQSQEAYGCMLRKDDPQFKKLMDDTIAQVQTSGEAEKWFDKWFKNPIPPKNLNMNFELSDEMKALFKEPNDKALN
Assay: Fluorimetric titration of fluorophore conjugates
Settings: T129C-JPW4039
Measured property: pKd
The scale used: pKd is minus the common logarithm of the concentration in molar units.

Entry NC(=O)CC[C@H](N)C(=O)O — recorded pKd = 4.64

* * *

Biological target: E. coli arabinose binding protein variant C64A/D257C, fluorophore conjugate (Escherichia coli, UniProt P02924, C87A/D280C)
Construct: initiator methionine (N); Gly-Ser-Gly-(His)n or Gly-Ser-(His)n (n = 5, 6 or 10) (C); made in house; host or cells: E. coli BL21-DE3
Assay: Fluorimetric titration of fluorophore conjugates
Conditions: Fluorescein conjugate, allosteric site
Measured property: Kd (µM)
Please respond with the number in µM and leave the unit unwritten.

Entry OC1OC[C@H](O)[C@H](O)[C@H]1O (stereo partly shown) — recorded Kd = 4

* * *

Target: E. coli arabinose binding protein variant C64A/K301C, fluorophore conjugate (Escherichia coli, UniProt P02924, C87A/K324C)
Construct: initiator methionine (N); Gly-Ser-Gly-(His)n or Gly-Ser-(His)n (n = 5, 6 or 10) (C); made in house; host or cells: E. coli BL21-DE3
Sequence (P02924 24-329 C87A/K324C): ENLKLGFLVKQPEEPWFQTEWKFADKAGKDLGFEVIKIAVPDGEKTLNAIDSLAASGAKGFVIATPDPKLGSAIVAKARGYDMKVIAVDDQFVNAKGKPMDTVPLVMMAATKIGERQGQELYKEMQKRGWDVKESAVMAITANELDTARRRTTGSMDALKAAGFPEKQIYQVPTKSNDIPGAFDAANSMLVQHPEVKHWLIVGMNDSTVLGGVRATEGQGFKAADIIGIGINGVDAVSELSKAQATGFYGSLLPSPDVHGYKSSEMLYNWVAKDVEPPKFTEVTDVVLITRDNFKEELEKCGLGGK
Experiment: Fluorimetric titration of fluorophore conjugates
Conditions: JPW4039 conjugate, allosteric site
Measured property: pKd
The scale used: pKd is minus the common logarithm of the concentration in molar units.

Entry OC1OC[C@H](O)[C@H](O)[C@H]1O (stereo partly shown) [arabinose] — recorded pKd = 4.11

* * *

Biological target: E. coli histidine binding protein (HBP, SEQ ID NO:2), fluorophore-conjugated cysteine mutants (Escherichia coli, UniProt P0AEU0)
Sequence (P0AEU0 23-260, change not shown): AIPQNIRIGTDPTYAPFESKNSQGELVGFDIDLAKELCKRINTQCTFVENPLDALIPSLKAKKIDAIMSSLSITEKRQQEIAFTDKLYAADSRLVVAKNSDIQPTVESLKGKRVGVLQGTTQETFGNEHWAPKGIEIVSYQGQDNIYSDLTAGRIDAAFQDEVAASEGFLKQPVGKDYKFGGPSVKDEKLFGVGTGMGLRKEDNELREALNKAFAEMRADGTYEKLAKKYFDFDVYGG
Settings: read-out: range of Kd; range over conjugates, n=4
Measured property: Kd

Entry N[C@@H](Cc1c[nH]cn1)C(=O)O — recorded Kd = 0.06 to 2.37 µM
